Taken from patent EP4775570A1.

Assignment: determine reported bioavailability for the given compounds.
measurement notes: PK study, intravenous and oral administration, plasma LC-MS/MS
Format: in vivo
measurement parameters: both sexes, 5 mg/kg, oral administration of 5 mpk, species not given (ICR mice or SD Rat), read-out: bioavailability (F)

For "Cn1c(CN2Cc3ccccc3C2)c(F)cc(CCC2CCN(S(C)(=O)=O)CC2)c1=O" the compound record lists bioavailability as > 60%

For "Cn1c(CN2Cc3ccccc3C2)c(F)cc(C=CC2CCN(S(C)(=O)=O)CC2)c1=O" the compound record lists bioavailability as > 60%

For CS(=O)(=O)N1CCC(COc2coc(CN3Cc4ccccc4C3)cc2=O)CC1 [ODM-208, reference compound] the compound record lists bioavailability as 59%

For "Cn1c(CN2Cc3ccccc3C2)c(F)cc(C=CC2CCN(C(=O)CC#N)CC2)c1=O" the compound record lists bioavailability as > 60%

----------
measured on: CYP11A1 (Homo sapiens)
Construct: host or cells: NCI-H295R
Sequence (P05108 40-521): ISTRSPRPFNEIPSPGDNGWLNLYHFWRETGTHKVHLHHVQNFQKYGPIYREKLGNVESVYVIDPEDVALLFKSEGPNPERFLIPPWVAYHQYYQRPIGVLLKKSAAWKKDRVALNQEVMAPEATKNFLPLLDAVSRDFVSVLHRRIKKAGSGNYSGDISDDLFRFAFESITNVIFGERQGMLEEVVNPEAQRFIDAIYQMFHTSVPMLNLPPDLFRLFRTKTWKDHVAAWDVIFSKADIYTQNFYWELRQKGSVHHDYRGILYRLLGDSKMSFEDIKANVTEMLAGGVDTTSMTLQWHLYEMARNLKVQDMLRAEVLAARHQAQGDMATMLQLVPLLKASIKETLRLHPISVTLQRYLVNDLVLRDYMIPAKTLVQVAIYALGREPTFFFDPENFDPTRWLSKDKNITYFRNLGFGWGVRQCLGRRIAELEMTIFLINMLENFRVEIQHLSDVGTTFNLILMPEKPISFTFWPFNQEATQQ
measurement notes: NCI-H295R cellular pregnenolone biosynthesis inhibition assay (ELISA method)
Type: cell-based
measurement parameters: NCI-H295R cells, 3 days incubation, pregnenolone in cell supernatant by ELISA; read-out: IC50
experimental endpoint: IC50

The compound "CNC(=O)N1CCC(CCc2ccc(CN3Cc4ccccc4C3)cc2OC)CC1" , when measured on CYP11A1 (Homo sapiens), yielded IC50 of < 100 nM

The compound "COc1cc(CN2Cc3ccccc3C2)ccc1CCC1CCN(C(C)=O)CC1" , when measured on CYP11A1 (Homo sapiens), yielded IC50 of < 100 nM

The compound "CS(=O)(=O)N1CCC(C=Cc2ccc(CN3Cc4ccccc4C3)cc2C#N)CC1" , when measured on CYP11A1 (Homo sapiens), yielded IC50 of < 100 nM

The compound Cn1c(CN2Cc3ccccc3C2)c(F)cc(CCC2CCN(S(C)(=O)=O)CC2(C)C)c1=O (centres unmarked) , when measured on CYP11A1 (Homo sapiens), yielded IC50 of < 100 nM

The compound "CC(C)c1cc(CN2Cc3ccccc3C2)ccc1OCC1CCN(S(C)(=O)=O)CC1" , when measured on CYP11A1 (Homo sapiens), yielded IC50 of < 100 nM

The compound Cn1c(CN2Cc3ccccc3C2)c(F)cc(CCC2CCCN(S(C)(=O)=O)C2)c1=O (centres unmarked) , when measured on CYP11A1 (Homo sapiens), yielded IC50 of > 300 nM

The compound "C=C(C)c1cc(CN2Cc3ccccc3C2)ccc1OCC1CCN(S(C)(=O)=O)CC1" , when measured on CYP11A1 (Homo sapiens), yielded IC50 of 100 to 300 nM

The compound "COc1cc(CN2Cc3ccccc3C2)ccc1CCC1CCN(S(=O)(=O)C(F)(F)F)CC1" , when measured on CYP11A1 (Homo sapiens), yielded IC50 of 100 to 300 nM

The compound CC1CC(CCc2cc(F)c(CN3Cc4ccccc4C3)n(C)c2=O)CCN1S(C)(=O)=O (centres unmarked) , when measured on CYP11A1 (Homo sapiens), yielded IC50 of < 100 nM

The compound "CS(=O)(=O)N1CCC(CCOc2cc(CN3Cc4ccccc4C3)ccn2)CC1" , when measured on CYP11A1 (Homo sapiens), yielded IC50 of > 300 nM

The compound "CS(=O)(=O)N1CCC(CCc2sc(CN3Cc4ccccc4C3)cc2C#N)CC1" , when measured on CYP11A1 (Homo sapiens), yielded IC50 of > 300 nM

The compound "CNC(=O)c1cc(CN2Cc3ccccc3C2)ccc1OCC1CCN(S(C)(=O)=O)CC1" , when measured on CYP11A1 (Homo sapiens), yielded IC50 of > 300 nM

The compound "CC(=O)N1CCC(CCSc2ccc(CN3Cc4ccccc4C3)cc2F)CC1" , when measured on CYP11A1 (Homo sapiens), yielded IC50 of < 100 nM

The compound "CC(=O)N1CCN(CCc2cc(F)c(CN3Cc4ccccc4C3)n(C)c2=O)CC1" , when measured on CYP11A1 (Homo sapiens), yielded IC50 of 100 to 300 nM

The compound "COc1cc(CN2Cc3ccncc3C2)ccc1CCC1CCN(S(C)(=O)=O)CC1" , when measured on CYP11A1 (Homo sapiens), yielded IC50 of < 100 nM

The compound "Cn1c(CN2Cc3ccccc3C2)c(F)cc(CCN2CCN(C(=O)OC(C)(C)C)CC2)c1=O" , when measured on CYP11A1 (Homo sapiens), yielded IC50 of < 100 nM

The compound "CC(C)c1cc(CN2Cc3ccccc3C2)ccc1CCC1CCN(S(C)(=O)=O)CC1" , when measured on CYP11A1 (Homo sapiens), yielded IC50 of < 100 nM
